study-system: Rlig1-AMP (Homo sapiens)
Construct: made in house; host or cells: E. coli BL21 (DE3), pET15b-Rlig1
Sequence (Q8N999 whole entry): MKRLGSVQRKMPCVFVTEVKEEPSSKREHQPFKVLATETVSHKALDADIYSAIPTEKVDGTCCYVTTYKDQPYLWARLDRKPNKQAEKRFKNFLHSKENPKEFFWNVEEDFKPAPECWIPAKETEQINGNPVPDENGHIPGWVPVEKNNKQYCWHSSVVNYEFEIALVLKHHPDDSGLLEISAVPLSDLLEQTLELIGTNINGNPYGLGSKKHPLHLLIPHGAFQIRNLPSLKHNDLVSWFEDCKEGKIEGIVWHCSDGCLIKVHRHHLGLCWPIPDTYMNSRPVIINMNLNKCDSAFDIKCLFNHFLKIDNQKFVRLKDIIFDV
assay: FRET-based high-throughput screening of inhibitors for Rlig1-AMP
Type: biochemical
run-conditions: HTS hits; difference of raw data w/o and w enzyme
assay-endpoint: 1-D Distance
Please state the value as a number alone, without comment.

IN: What does the data say about its 1-D Distance? Entry: Cn1ncnc2c(=O)n(C)c(=O)nc1-2 [Toxoflavin]
OUT: 1019

IN: Do the same for CC(C)N=C(N)c1ccc2nc(-c3ccc(OCc4cccc(COc5ccc(-c6nc7ccc(C(N)=NC(C)C)cc7[nH]6)cc5)c4F)cc3)[nH]c2c1 [DB2313] please
OUT: 699

IN: Do the same for c1cc(-c2cnn3cc(-c4ccc(N5CCNCC5)cc4)cnc23)c2cccnc2c1 [LDN-212854] please
OUT: 1181

IN: Do the same for C/C=C/c1cc(OC)c(OC)cc1OC [alpha-Asarone] please
OUT: 1762

IN: Do the same for CCCCCCCCCCCCCCCC[N+](C)(C)CCN(Cc1ccc(OC)cc1)c1ncccn1.[Br-] [Thonzonium (bromide)] please
OUT: 365

IN: Do the same for Cl.Cl.Cn1cc(NC(=O)c2cc(NC(=O)CN=C(N)N)cn2C)cc1C(=O)NCCC(=N)N [Netropsin (dihydrochloride)] please
OUT: 1774

IN: Do the same for CC1(C)CCC(C)(C)c2cc(NC(=O)c3ccc(C(=O)O)cc3)ccc21 [Tamibarotene] please
OUT: 1704

IN: Do the same for O=C1c2ccccc2C(=O)c2c1cc(S(=O)(=O)Nc1ccc(C(F)(F)F)cc1)c(O)c2O [PGMI-004A] please
OUT: 1480
